B1: SOAT1 (parent)
chain: GVLILFLTFFAFLHCWLNAFAEML

# Variants of: B1
# Experimental details: protein stability index of a GFP-peptide fusion (GPS, HEK-293T) (PSI 1-6); higher = more stable;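 note: lentivirally expressed fusions sorted by FACS into six bins by GFP to DsRed ratio, PSI derived from sequencing read proportions per bin multiplied by bin number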
# Setup conditions: c terminus: a fixed tail appended
Measured property: protein stability index

Mut: H14S
Reported result: 2.02
--
Mut: W16K
Reported result: 2.19
--
Mut: F12Q
Reported result: 2.71
--
Mut: A19N
Reported result: 2.8
--
Mut: F6H
Reported result: 2.63
--
Mut: L24W
Reported result: 2.06
